Values from patent US20240376200A1

- System under test: recombinant Antigen 1 (recombinant Ab1 target; recombinant integrin αvβ6 antigen)
- Sequence (P06756 31-992, chain 1 of 2): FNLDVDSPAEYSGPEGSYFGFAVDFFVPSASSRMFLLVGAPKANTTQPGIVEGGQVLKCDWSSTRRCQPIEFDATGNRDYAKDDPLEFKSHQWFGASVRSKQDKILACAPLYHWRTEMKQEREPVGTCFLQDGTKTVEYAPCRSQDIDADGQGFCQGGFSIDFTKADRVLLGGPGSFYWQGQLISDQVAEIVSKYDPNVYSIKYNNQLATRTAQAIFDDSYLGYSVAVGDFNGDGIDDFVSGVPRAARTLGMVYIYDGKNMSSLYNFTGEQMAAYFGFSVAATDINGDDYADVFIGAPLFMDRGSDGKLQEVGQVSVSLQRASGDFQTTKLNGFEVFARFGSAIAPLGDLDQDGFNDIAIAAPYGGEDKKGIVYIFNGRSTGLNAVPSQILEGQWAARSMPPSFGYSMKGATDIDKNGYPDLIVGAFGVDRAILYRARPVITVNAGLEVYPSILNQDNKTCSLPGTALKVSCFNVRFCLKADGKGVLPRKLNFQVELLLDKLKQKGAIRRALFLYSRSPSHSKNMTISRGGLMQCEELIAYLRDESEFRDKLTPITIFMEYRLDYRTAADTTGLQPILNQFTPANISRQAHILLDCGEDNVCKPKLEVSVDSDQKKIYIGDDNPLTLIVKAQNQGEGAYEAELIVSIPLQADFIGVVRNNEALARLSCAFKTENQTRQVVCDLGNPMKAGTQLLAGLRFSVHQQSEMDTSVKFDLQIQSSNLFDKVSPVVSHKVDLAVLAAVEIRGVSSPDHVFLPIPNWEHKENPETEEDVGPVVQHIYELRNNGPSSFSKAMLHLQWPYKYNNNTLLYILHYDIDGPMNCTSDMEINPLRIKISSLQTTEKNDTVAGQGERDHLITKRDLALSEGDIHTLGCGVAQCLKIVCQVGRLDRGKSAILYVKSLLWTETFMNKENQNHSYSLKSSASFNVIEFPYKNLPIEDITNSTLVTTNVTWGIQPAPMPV
- Sequence (P18564 22-709, chain 2 of 2, further chain): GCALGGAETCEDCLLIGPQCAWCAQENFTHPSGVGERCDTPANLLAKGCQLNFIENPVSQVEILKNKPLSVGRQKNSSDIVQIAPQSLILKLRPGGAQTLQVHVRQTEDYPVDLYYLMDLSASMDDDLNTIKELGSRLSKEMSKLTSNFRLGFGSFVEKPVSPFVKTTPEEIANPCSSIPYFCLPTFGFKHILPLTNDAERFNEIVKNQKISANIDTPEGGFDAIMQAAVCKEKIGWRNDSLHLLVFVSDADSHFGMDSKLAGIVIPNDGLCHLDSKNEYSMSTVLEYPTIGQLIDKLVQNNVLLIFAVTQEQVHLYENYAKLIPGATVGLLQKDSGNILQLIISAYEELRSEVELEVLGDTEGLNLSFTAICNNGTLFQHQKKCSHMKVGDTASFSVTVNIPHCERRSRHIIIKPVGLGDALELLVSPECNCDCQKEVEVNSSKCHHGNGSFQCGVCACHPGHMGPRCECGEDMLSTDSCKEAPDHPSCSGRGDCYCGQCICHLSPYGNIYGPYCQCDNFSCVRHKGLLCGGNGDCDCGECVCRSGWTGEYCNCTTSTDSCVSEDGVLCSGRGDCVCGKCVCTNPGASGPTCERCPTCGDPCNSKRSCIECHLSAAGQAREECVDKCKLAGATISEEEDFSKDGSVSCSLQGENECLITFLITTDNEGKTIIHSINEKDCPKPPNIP
- Experimental protocol: saturation binding ELISA
Reported metric: pEC50
# pEC50 is unitless: minus log10 of the molar concentration; print number only

Q: Returns the measured pEC50 for the input binder. Input: Vel-IPV-Ab1 Coil 114 (antibody, part only; not given: Ab1 heavy and light chains, part only) heavy, part: QGASTSVDELQAEVDQLEDENYAWKTKVAQLRKKVEKLGSIPVSLRSG light, part: QGASTTVAQLEEKVKTLRAENYEFKSEVQRLEEQVAQLGSIPVSLRSG
A: 6.56

Q: Request the reported pEC50 associated with Vel-IPV-Ab1 Coil 116 (antibody, part only; not given: Ab1 heavy and light chains, part only) heavy, part: QGASTSVDELQAEVDQLEDENYAAKTKVAQLRKKVEKLGSIPVSLRSG light, part: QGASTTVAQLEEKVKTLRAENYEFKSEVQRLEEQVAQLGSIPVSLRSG
A: 6.43

Q: # lookup: pEC50 of Vel-IPV-Ab1 Coil 118 (antibody, part only; not given: Ab1 heavy and light chains, part only) heavy, part: QGASTSVDELQAEVDQLEDENYAFKTKVAQLRKKVEKLGSIPVSLRSG light, part: QGASTTVAQLEEKVKTLRAENYESKSEVQRLEEQVAQLGSIPVSLRSG
A: 7.34

Q: Would you kindly share the measured pEC50 for Vel-IPV-Ab1 Coil 134 (antibody, part only; not given: Ab1 heavy and light chains, part only) heavy, part: QGASTSVDELQAEVDQLEDENYAKKTKVAQLRKKVEKLGSIPVSLRSG light, part: QGASTTVAQLEEKVKTLRAENYEIKSEVQRLEEQVAQLGSIPVSLRSG ?
A: 7.83
